# System: Cryptococcus neoformans
# assay_text: Antifungal activity against Cryptococcus neoformans by broth microdilution assay
# Format: functional, organism-based
assay_endpoint: MIC (mg/L)
Kindly provide the numeric value in mg/L only, without the unit symbol.

A selection of reference data follows.
Find the recorded MIC belonging to COc1cc(NC(C)CCCNC(C)CCCNC(C)CCCN)c2nc(C(C)(C)C)ccc2c1.Cl (stereo not given) and report it. 20

Try this compound next: COc1cc(NC(C)CCCNC(C)CCCNC(C)CCCNC(C)CCCN)c2nc(C(C)(C)C)ccc2c1.Cl (stereo not given) 20

Try this compound next: CCCCOc1c(OC)cc(NC(C)CCCNC(C)CCCNC(C)CCCNC(C)CCCN)c2nccc(CC)c12.Cl (stereo not given) 20

Try this compound next: CCCCCOc1c(OC)cc(NC(C)CCCNC(C)CCCNC(C)CCCNC(C)CCCN)c2nccc(CC)c12.Cl (stereo not given) 10

Try this compound next: CCCCOc1c(OC)cc(NC(C)CCCNC(C)CCCNC(C)CCCN)c2nccc(CC)c12.Cl (stereo not given) 20

***
Find the recorded MIC belonging to CCCCCOc1c(OC)cc(NC(C)CCCNC(C)CCCNC(C)CCCN)c2nccc(CC)c12.Cl (stereo not given) and report it. 10

Try this compound next: CCCCOc1c(OC)cc(NC(C)CCCNC(C)CCCN)c2nccc(CC)c12.Cl (stereo not given) 20

Try this compound next: CCCCCCCCOc1c(OC)cc(NC(C)CCCNC(C)CCCN)c2nccc(CC)c12.Cl (stereo not given) 20

Try this compound next: COc1cc(NC(C)CCCNC(C)CCCN)c2nc(C(C)(C)C)ccc2c1.Cl (stereo not given) 20

Try this compound next: CCCCCOc1c(OC)cc(NC(C)CCCNC(C)CCCN)c2nccc(CC)c12.Cl (stereo not given) 10

###

# assay_text: Inhibition of beta-hematin formation after 16 hrs
# Format: physicochemical
assay_endpoint: pIC50
In plain terms, pIC50 is the concentration in mol/L turned into minus its base-10 logarithm.

A selection of reference data follows.
Find the recorded pIC50 belonging to CCCCCOc1c(OC)cc(NC(C)CCCNC(C)CCCNC(C)CCCNC(C)CCCN)c2nccc(CC)c12.Cl (stereo unspecified) and report it. 4.95

Try this compound next: CCCCCOc1c(OC)cc(NC(C)CCCNC(C)CCCN)c2nccc(CC)c12.Cl (stereo unspecified) 5.02

Try this compound next: CCCCOc1c(OC)cc(NC(C)CCCNC(C)CCCNC(C)CCCN)c2nccc(CC)c12.Cl (stereo unspecified) 4.71

Try this compound next: CCN(CC)CCCC(C)Nc1ccnc2cc(Cl)ccc12 (stereo unspecified) 4.10

***
Find the recorded pIC50 belonging to COc1cc(NC(C)CCCNC(C)CCCN)c2nc(C(C)(C)C)ccc2c1.Cl (stereo unspecified) and report it. 5.12

###

Below: a set of entries, each annotated with reported selectivity ratio.
# assay_text: Selectivity index, ratio of IC50 for African green monkey Vero cells to IC50 for chloroquine-resistant Plasmodium falciparum W2
# Type: toxicity, cell-based
# conditions: read-out: Ratio IC50

A selection of reference data follows.
Find the recorded selectivity ratio belonging to COc1cc(NC(C)CCCNC(C)CCCNC(C)CCCNC(C)CCCN)c2nc(C(C)(C)C)ccc2c1.Cl (centres undefined) and report it. > 42.5

Try this molecule next: C[C@@H]1CC[C@H]2[C@@H](C)C(=O)O[C@@H]3O[C@@]4(C)CC[C@@H]1[C@]32OO4 [ARTEMISININ] 2640

Try this molecule next: COc1cc(NC(C)CCCNC(C)CCCNC(C)CCCNC(C)CCCN)c2ncccc2c1.Cl (centres undefined) > 18.3

Try this molecule next: CCCCOc1c(OC)cc(NC(C)CCCNC(C)CCCN)c2nccc(CC)c12.Cl (centres undefined) > 64.2

Try this molecule next: CCCCCCCCOc1c(OC)cc(NC(C)CCCNC(C)CCCN)c2nccc(CC)c12.Cl (centres undefined) > 29

Try this molecule next: COc1cc(NC(C)CCCNC(C)CCCN)c2nc(C(C)(C)C)ccc2c1.Cl (centres undefined) > 198

Try this molecule next: CCCCCOc1c(OC)cc(NC(C)CCCNC(C)CCCNC(C)CCCNC(C)CCCN)c2nccc(CC)c12.Cl (centres undefined) > 56.6

Try this molecule next: CCCCCOc1c(OC)cc(NC(C)CCCNC(C)CCCN)c2nccc(CC)c12.Cl (centres undefined) > 132

Shift focus to the following entry.
Find the recorded selectivity ratio belonging to COc1cc(NC(C)CCCNC(C)CCCNC(C)CCCN)c2ncccc2c1.Cl (centres undefined) and report it. > 15.8

###

# Test system: Leishmania donovani
# assay_text: Antileishmanial activity against Leishmania donovani promastigotes by Alamar Blue assay
# Assay type: functional, organism-based
Activity calls are given as the source filed them. No cut-off for these calls is given here.
assay_endpoint: IC90

A selection of reference data follows.
Find the recorded IC90 belonging to COc1cc(NC(C)CCCN)c2ncccc2c1 (stereo not drawn) and report it. inactive

Try this compound next: COc1cc(NC(C)CCCNC(C)CCCN)c2ncccc2c1.Cl (stereo not drawn) inactive

Try this compound next: COc1cc(NC(C)CCCNC(C)CCCNC(C)CCCN)c2ncccc2c1.Cl (stereo not drawn) 40 µg/mL

Try this compound next: CCCCCOc1c(OC)cc(NC(C)CCCNC(C)CCCNC(C)CCCNC(C)CCCN)c2nccc(CC)c12.Cl (stereo not drawn) 7 µg/mL

Try this compound next: CCCCCOc1c(OC)cc(NC(C)CCCNC(C)CCCN)c2nccc(CC)c12.Cl (stereo not drawn) 7 µg/mL

Try this compound next: `C[C@@H]1[C@H](O)[C@@H](C)/C=C/C=C/C=C/C=C/C=C/C=C/C=C/[C@H](O[C@@H]2O[C@H](C)[C@@H](O)[C@H](N)[C@@H]2O)C[C@@H]2O[C@](O)(C[C@@H](O)C[C@@H](O)[C@H](O)CC[C@@H](O)C[C@@H](O)CC(=O)O[C@H]1C)C[C@H](O)[C@H]2C(=O)O` 0.35 µg/mL

Try this compound next: CCCCOc1c(OC)cc(NC(C)CCCNC(C)CCCNC(C)CCCN)c2nccc(CC)c12.Cl (stereo not drawn) 32 µg/mL

Shift focus to the following entry.
Find the recorded IC90 belonging to CCCCCOc1c(OC)cc(NC(C)CCCNC(C)CCCNC(C)CCCN)c2nccc(CC)c12.Cl (stereo not drawn) and report it. 7 µg/mL

###

# assay_text: Selectivity index, ratio of IC50 for African green monkey Vero cells to IC50 for chloroquine-resistant Plasmodium falciparum W2
# Assay type: toxicity, cell-based
# conditions: read-out: Ratio IC50
assay_endpoint: selectivity ratio

A selection of reference data follows.
Find the recorded selectivity ratio belonging to CCCCOc1c(OC)cc(NC(C)CCCNC(C)CCCNC(C)CCCN)c2nccc(CC)c12.Cl (centres undefined) and report it. > 41

Try this compound next: COc1cc(NC(C)CCCNC(C)CCCN)c2ncccc2c1.Cl (centres undefined) > 29.7

Try this compound next: CCCCOc1c(OC)cc(NC(C)CCCNC(C)CCCNC(C)CCCNC(C)CCCN)c2nccc(CC)c12.Cl (centres undefined) > 68

***
Find the recorded selectivity ratio belonging to CCCCCOc1c(OC)cc(NC(C)CCCNC(C)CCCNC(C)CCCN)c2nccc(CC)c12.Cl (centres undefined) and report it. > 49.5

###

# Test system: Leishmania donovani
# assay_text: Antileishmanial activity against Leishmania donovani promastigotes by Alamar Blue assay
# Assay type: functional, organism-based
Lab note: compare IC90 with 7 µg/mL, writing MET if less and NOT MET if equal or more.

Worked cases, answers included:
API: query returns whether the compound falls strictly under 7 µg/mL in IC90. Query: COc1cc(NC(C)CCCNC(C)CCCNC(C)CCCNC(C)CCCN)c2nc(C(C)(C)C)ccc2c1.Cl (stereo not drawn) NOT MET

Try this compound next: CCCCCCCCOc1c(OC)cc(NC(C)CCCNC(C)CCCN)c2nccc(CC)c12.Cl (stereo not drawn) NOT MET

Try this compound next: COc1cc(NC(C)CCCNC(C)CCCNC(C)CCCN)c2nc(C(C)(C)C)ccc2c1.Cl (stereo not drawn) MET

Try this compound next: N=C(N)c1ccc(OCCCCCOc2ccc(C(=N)N)cc2)cc1 [PENTAMIDINE] MET

For the next question, use this compound.
API: query returns whether the compound falls strictly under 7 µg/mL in IC90. Query: COc1cc(NC(C)CCCNC(C)CCCNC(C)CCCNC(C)CCCN)c2ncccc2c1.Cl (stereo not drawn) NOT MET

###

# System: Leishmania donovani
# assay_text: Antileishmanial activity against Leishmania donovani promastigotes by Alamar Blue assay
# Type: functional, organism-based
Below: a set of entries, each annotated with reported IC50.
Kindly provide the numeric value in µg/mL only, without the unit symbol.

A selection of reference data follows.
Find the recorded IC50 belonging to COc1cc(NC(C)CCCNC(C)CCCN)c2ncccc2c1.Cl (centres undefined) and report it. 32

Try this compound next: COc1cc(NC(C)CCCNC(C)CCCNC(C)CCCN)c2ncccc2c1.Cl (centres undefined) 4.2

***
Find the recorded IC50 belonging to COc1cc(NC(C)CCCNC(C)CCCNC(C)CCCNC(C)CCCN)c2nc(C(C)(C)C)ccc2c1.Cl (centres undefined) and report it. 1.6

Try this compound next: CCCCCCCCOc1c(OC)cc(NC(C)CCCNC(C)CCCN)c2nccc(CC)c12.Cl (centres undefined) 17

Try this compound next: CCCCOc1c(OC)cc(NC(C)CCCNC(C)CCCNC(C)CCCNC(C)CCCN)c2nccc(CC)c12.Cl (centres undefined) 3.2

Try this compound next: CCCCOc1c(OC)cc(NC(C)CCCNC(C)CCCNC(C)CCCN)c2nccc(CC)c12.Cl (centres undefined) 14

Try this compound next: COc1cc(NC(C)CCCNC(C)CCCNC(C)CCCNC(C)CCCN)c2ncccc2c1.Cl (centres undefined) 5

Try this compound next: COc1cc(NC(C)CCCNC(C)CCCN)c2nc(C(C)(C)C)ccc2c1.Cl (centres undefined) 2.8

Try this compound next: CCCCCOc1c(OC)cc(NC(C)CCCNC(C)CCCN)c2nccc(CC)c12.Cl (centres undefined) 3.7
